All values here come from patent US6613781B2.

Structures can show the parent of a compound that is named as a salt.
Listing: melting point of selected molecules
Field: numeric (°C). Do not append units.

Task item: Let me know recorded melting point for O=S(=O)(c1cccc2cccnc12)n1cc(CC2CCNCC2)c2cc(F)ccc21 (as salt: hydrochloride) [Example 20] , thanks.
Reply: 245

Task item: Let me know recorded melting point for N#Cc1ccc(S(=O)(=O)n2cc(CC3CCNCC3)c3cc(F)ccc32)cc1 (as salt: hydrochloride) [Example 19] , thanks.
Reply: 249

Task item: Let me know recorded melting point for COc1ccc(S(=O)(=O)n2cc(CC3CCNCC3)c3cc(F)ccc32)cc1OC (as salt: hydrochloride) [Example 18] , thanks.
Reply: 246
